Attribution: patent US20260232732A1

molecular target: T1, biotin-peptide SMEDYVNFNF (human); assay: ELISA biotin-peptide; scFv 10 ug/mL; repII
T1 peptide: Biotin-SMEDYVNFNF
Where no end group is shown, it is not given here. The star is where a group is joined. Biotin = O=C1N[C@H]2[C@H](CS[C@H]2CCCCC(=O)*)N1
PROPERTY NAME: OD450 (OD)

Comparative antibody 3 (Comp-3) scFv, SR_92R (Somovilla-Crespo et al. 2018), His-tagged (scFv) scFv: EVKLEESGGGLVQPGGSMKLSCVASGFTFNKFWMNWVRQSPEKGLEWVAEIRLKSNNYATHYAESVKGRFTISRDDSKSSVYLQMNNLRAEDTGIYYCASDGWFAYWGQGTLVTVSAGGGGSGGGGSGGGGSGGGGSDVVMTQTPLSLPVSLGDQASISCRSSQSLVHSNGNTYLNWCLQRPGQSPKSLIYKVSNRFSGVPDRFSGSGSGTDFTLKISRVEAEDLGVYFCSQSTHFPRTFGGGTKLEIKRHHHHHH | 0.12
Comparative antibody 2 (Comp-2) scFv, 243LO326 (VH SEQ ID NO: 51 and VL SEQ ID NO: 52 of WO 2022/195028 A2), His-tagged (scFv) scFv: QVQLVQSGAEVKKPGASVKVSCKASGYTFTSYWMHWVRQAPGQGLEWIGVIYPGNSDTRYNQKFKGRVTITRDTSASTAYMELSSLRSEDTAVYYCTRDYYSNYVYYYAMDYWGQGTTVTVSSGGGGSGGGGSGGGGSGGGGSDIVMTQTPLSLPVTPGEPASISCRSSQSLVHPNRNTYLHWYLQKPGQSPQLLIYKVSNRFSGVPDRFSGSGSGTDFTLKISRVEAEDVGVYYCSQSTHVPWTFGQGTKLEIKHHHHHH | 0.05
CCR9_HUM2 scFv (humanized anti-CCR9 scFv, SEQ ID NO: 17 with C-terminal 6xHis tag) (scFv) scFv: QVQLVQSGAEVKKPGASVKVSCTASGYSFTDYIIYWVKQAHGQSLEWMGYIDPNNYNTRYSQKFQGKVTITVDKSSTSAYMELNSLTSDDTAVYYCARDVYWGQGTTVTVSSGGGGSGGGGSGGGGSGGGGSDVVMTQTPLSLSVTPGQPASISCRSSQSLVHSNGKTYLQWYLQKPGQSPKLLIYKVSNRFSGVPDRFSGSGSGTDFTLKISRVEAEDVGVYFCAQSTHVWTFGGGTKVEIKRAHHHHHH | 2.38
Comparative antibody 1 (Comp-1) scFv, SEQ ID NO: 10 from WO2023/037125 A1, His-tagged (scFv) scFv: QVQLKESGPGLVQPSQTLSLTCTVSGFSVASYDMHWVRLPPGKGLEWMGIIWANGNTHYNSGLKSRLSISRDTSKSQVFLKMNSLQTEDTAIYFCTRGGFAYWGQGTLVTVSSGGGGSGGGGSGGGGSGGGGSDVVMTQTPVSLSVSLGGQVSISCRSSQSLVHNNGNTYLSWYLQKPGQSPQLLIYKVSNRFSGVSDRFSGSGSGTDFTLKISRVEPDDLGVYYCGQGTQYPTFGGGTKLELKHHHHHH | 0.1
